B1: MMP1 (parent)
chain: YTPDLPRADVDHAIEKAFQLWSNV

- Variants of: B1
- Assay details: protein stability index of a GFP-peptide fusion (GPS, HEK-293T) (PSI 1-6); higher = more stable;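 further: lentivirally expressed fusions sorted by FACS into six bins by GFP to DsRed ratio, PSI derived from sequencing read proportions per bin multiplied by bin number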
- Experimental conditions: c terminus: a fixed tail appended
# protein stability index >= 2 gives True, anything below gives False

K16I: True

Is the recorded value of protein stability index equal to or greater than 2 for this variant? V24Y
True

Is the recorded value of protein stability index equal to or greater than 2 for this variant? Y1F
True

Is the recorded value of protein stability index equal to or greater than 2 for this variant? T2D
True

Reference source: the supplement of paper PMC10567573
